molecular target: full-length beta-Catenin (Uniprot ID P35222) (Homo sapiens); construct: 10 nM full-length beta-Catenin (Uniprot ID P35222); assay: Fluorescence polarization IC50 (beta-catenin / 5FAM-TCF4 10-53 competition); format: binding; settings: fluorescence polarization; read-out: beta-Catenin FP IC50
Reported Metric: IC50 (nM)
Supply the numeric figure in nM, leaving out any unit text.

Recorded result, CC(=O)N1CCC[C@]12CCCCCCC1(CCCCCCCCOC(=O)N3CC[C@@](C(=O)N[C@@H](Cc4ccsc4)C(=O)N[C@@H](Cc4csc5ccccc45)C(=O)N[C@@H](Cc4ccccc4)C(N)=O)(C3)NC(=O)[C@H](CC(C)C)NC(=O)[C@H](Cc3ccccc3)NC(=O)[C@H](C)NC(=O)[C@H](C)NC(=O)[C@H](CN(CC(=O)O)CC(F)(F)F)NC(=O)[C@H](CC(=O)O)NC1=O)NC(=O)[C@H](CC(C)(C)C)NC(=O)[C@H](CC(=O)O)NC2=O (stereo partly drawn) , IC50: 570

Recorded result, CC(=O)N1CCC[C@]12CC=CCCCC1(CCCC=CCCCCCC[C@@](C)(C(=O)N[C@@H](Cc3ccccc3C(N)=O)C(=O)N[C@@H](Cc3csc4ccccc34)C(=O)N[C@@H](Cc3c[nH]cn3)C(N)=O)NC(=O)[C@H](CC(N)=O)NC(=O)[C@H](Cc3ccccc3)NC(=O)[C@H](C)NC(=O)[C@H](C)NC(=O)[C@H](CCC(=O)O)NC(=O)[C@H](CC(=O)O)NC1=O)NC(=O)[C@H](C)NC(=O)[C@H](CC(=O)O)NC2=O (stereo partly drawn) , IC50: 143

Recorded result, CC(=O)N1CCC[C@]12CC=CCCCC1(CCCC=CCCCOC(=O)N3CC[C@@](C(=O)N[C@@H](Cc4ccsc4)C(=O)N[C@@H](Cc4csc5ccccc45)C(=O)N[C@@H](CCC(N)=O)C(N)=O)(C3)NC(=O)[C@H](CC(N)=O)NC(=O)[C@H](Cc3ccccc3)NC(=O)[C@H](C)NC(=O)[C@H](C)NC(=O)[C@H]([C@@H](C)O)NC(=O)[C@H](CC(N)=O)NC1=O)NC(=O)[C@H](CC(C)(C)C)NC(=O)[C@H](CN(CC(=O)O)CC(F)(F)F)NC2=O (stereo partly drawn) [I-2131] , IC50: 3220

====

target: full-length beta-Catenin (Uniprot ID P35222) (Homo sapiens, UniProt P35222); construct: 10 nM full-length beta-Catenin (Uniprot ID P35222); experiment: Fluorescence polarization IC50 (beta-catenin / 5FAM-TCF4 10-53 competition); assay type: binding; settings: fluorescence polarization, beta-catenin; read-out: FP EC50
Sequence (P35222 whole entry): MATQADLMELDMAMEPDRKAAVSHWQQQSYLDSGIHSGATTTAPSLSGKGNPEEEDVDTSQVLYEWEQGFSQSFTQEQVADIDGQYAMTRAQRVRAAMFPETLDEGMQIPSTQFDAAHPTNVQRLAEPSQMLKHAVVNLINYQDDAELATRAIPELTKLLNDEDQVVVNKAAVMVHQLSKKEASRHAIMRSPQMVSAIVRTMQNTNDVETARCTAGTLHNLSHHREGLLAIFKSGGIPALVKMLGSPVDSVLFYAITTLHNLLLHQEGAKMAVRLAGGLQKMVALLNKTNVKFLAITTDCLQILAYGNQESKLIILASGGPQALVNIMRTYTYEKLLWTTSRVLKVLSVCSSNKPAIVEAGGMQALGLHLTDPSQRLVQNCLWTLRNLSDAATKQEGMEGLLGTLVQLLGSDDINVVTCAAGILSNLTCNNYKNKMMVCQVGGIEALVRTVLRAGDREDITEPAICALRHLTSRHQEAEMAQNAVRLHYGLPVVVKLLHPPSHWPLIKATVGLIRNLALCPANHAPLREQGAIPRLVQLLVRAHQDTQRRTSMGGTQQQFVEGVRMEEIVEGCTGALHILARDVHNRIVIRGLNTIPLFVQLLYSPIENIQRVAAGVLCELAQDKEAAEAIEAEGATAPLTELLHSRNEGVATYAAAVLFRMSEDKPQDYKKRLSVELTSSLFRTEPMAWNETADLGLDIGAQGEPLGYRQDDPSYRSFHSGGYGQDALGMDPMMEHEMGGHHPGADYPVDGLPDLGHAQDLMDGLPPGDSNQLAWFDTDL
One threshold, 0.2 µM, splits the recorded IC50 values: lower ones are yes (1), equal or higher ones are no (0).

Given CC(=O)N1CCC[C@]12CC=CCCCC1(CCCC=CCCCOC(=O)N3CC[C@@](C(=O)N[C@@H](Cc4cccc(Cl)c4)C(=O)N[C@@H](Cc4csc5ccccc45)C(=O)N[C@@H](CCC(N)=O)C(N)=O)(C3)NC(=O)[C@H](CC(N)=O)NC(=O)[C@H](Cc3ccccc3)NC(=O)[C@H](C)NC(=O)[C@H](C)NC(=O)[C@H](CN(CC(=O)O)CC(F)(F)F)NC(=O)[C@H](CC(=O)O)NC1=O)NC(=O)[C@H](CC(C)(C)C)NC(=O)[C@H](CC(=O)O)NC2=O (stereo partly shown) [I-925] , is recorded IC50 strictly lower than 0.2 µM?
yes (1)

Given CC[C@H](C)[C@@H]1NC(=O)[C@H](CC(=O)O)NC(=O)[C@]2(CC=CCCCC3(CCCC=CCCCCCC[C@@](C)(C(=O)N[C@@H](Cc4ccccc4)C(=O)N[C@@H](Cc4c[nH]c5ccccc45)C(N)=O)NC(=O)[C@H](CCC(N)=O)NC(=O)[C@H](Cc4ccccc4)NC(=O)[C@H](C)NC(=O)[C@H](C)NC(=O)[C@H](CCC(=O)O)NC(=O)[C@H](CC(=O)O)NC3=O)NC1=O)CCCN2C(C)=O (stereo partly shown) [I-192] , is recorded IC50 strictly lower than 0.2 µM?
no (0)

Given CCCC[C@@H]1NC(=O)[C@H](CC(=O)O)NC(=O)[C@]2(CC=CCCCC3(CCCC=CCCCOC(=O)N4CC[C@@](C(=O)N[C@@H](Cc5ccccc5Cl)C(=O)N[C@@H](Cc5csc6ccccc56)C(=O)N[C@@H](CC(C)C)C(N)=O)(C4)NC(=O)[C@H](CC(C)C)NC(=O)[C@H](Cc4ccccc4)NC(=O)[C@H](C)NC(=O)[C@H](C)NC(=O)[C@H](CC(=O)O)NC(=O)[C@H](CC(=O)O)NC3=O)NC1=O)CCCN2C(C)=O (stereo partly shown) [I-1421] , is recorded IC50 strictly lower than 0.2 µM?
yes (1)

Given CC(=O)N1CCC[C@]12CC=CCCCC1(CCCC=CCCCCCC[C@@](C)(C(=O)N[C@@H](Cc3ccccc3)C(=O)N[C@@H](Cc3c[nH]c4ccccc34)C(=O)N[C@@H](CCC(N)=O)C(N)=O)NC(=O)[C@H](C)NC(=O)[C@H](Cc3ccccc3)NC(=O)[C@H](C)NC(=O)[C@H](C)NC(=O)[C@H](CC(=O)O)NC(=O)[C@H](CC(=O)O)NC1=O)NC(=O)[C@H](C)NC(=O)[C@H](CC(=O)O)NC2=O (stereo partly shown) [I-288] , is recorded IC50 strictly lower than 0.2 µM?
no (0)

Given CC(=O)N1CCC[C@]12CC=CCCCC1(CCCC=CCCCOC(=O)N3CC[C@@](C(=O)N[C@@H](Cc4ccsc4)C(=O)N[C@@H](Cc4csc5ccccc45)C(=O)N[C@@H](CO)C(N)=O)(C3)NC(=O)[C@H](Cc3ccccc3)NC(=O)[C@H](Cc3ccccc3)NC(=O)[C@H](C)NC(=O)[C@H](C)NC(=O)[C@H](Cc3cccc(C(=O)O)c3)NC(=O)[C@H](CC(=O)O)NC1=O)NC(=O)[C@H](CC(C)(C)C)NC(=O)[C@H](CC(=O)O)NC2=O (stereo partly shown) [I-982] , is recorded IC50 strictly lower than 0.2 µM?
yes (1)

Given CC(=O)N1CCC[C@]12CC=CCCCC1(CCCC=CCCCCCC[C@@](C)(C(=O)N[C@@H](Cc3ccccc3)C(=O)N[C@@H](Cc3c[nH]c4ccccc34)C(=O)N[C@@H](CCC(N)=O)C(N)=O)NC(=O)[C@H](C(C)C)NC(=O)[C@H](Cc3cccc(C(F)(F)F)c3)NC(=O)[C@H](C)NC(=O)[C@H](C)NC(=O)[C@H](CC(=O)O)NC(=O)[C@H](CC(=O)O)NC1=O)NC(=O)[C@H](C)NC(=O)[C@H](CC(=O)O)NC2=O (stereo partly shown) [I-238] , is recorded IC50 strictly lower than 0.2 µM?
no (0)

Given CC(=O)N1CCC[C@]12CC=CCCCC1(CCCC=CCCCCCC[C@@](C)(C(=O)N[C@@H](Cc3ccccc3)C(=O)N[C@@H](Cc3csc4ccccc34)C(=O)N[C@@H](CCC(N)=O)C(N)=O)NC(=O)[C@H](C)NC(=O)[C@H](Cc3ccccc3C)NC(=O)[C@H](C)NC(=O)[C@H](C)NC(=O)[C@H](CC(=O)O)NC(=O)[C@H](CC(=O)O)NC1=O)NC(=O)[C@H](C)NC(=O)[C@H](CC(=O)O)NC2=O (stereo partly shown) [I-365] , is recorded IC50 strictly lower than 0.2 µM?
no (0)

Given CC(=O)N1CCC[C@]12CC=CCCCC1(CCCC=CCCCCCC[C@@](C)(C(=O)N[C@@H](Cc3ccccc3)C(=O)N[C@@H](Cc3c[nH]c4ccccc34)C(=O)N[C@@H](CCC(N)=O)C(N)=O)NC(=O)[C@H](C(C)C)NC(=O)[C@H](Cc3ccccc3)NC(=O)[C@H](C)NC(=O)[C@H](C)NC(=O)[C@H](Cc3c[nH]cn3)NC(=O)[C@H](CC(=O)O)NC1=O)NC(=O)[C@H](C)NC(=O)[C@H](CC(=O)O)NC2=O (stereo partly shown) [I-305] , is recorded IC50 strictly lower than 0.2 µM?
no (0)

Given CC(=O)N1CCC[C@]12CC=CCCCC1(CCCC=CCCCOC(=O)N3CC[C@@](C(=O)N[C@@H](Cc4ccccc4Cl)C(=O)N[C@@H](Cc4csc5ccccc45)C(=O)N[C@H](C(N)=O)[C@@H](C)O)(C3)NC(=O)[C@H](CC(C)C)NC(=O)[C@H](Cc3ccccc3)NC(=O)[C@H](C)NC(=O)[C@H](C)NC(=O)[C@H](CC(=O)O)NC(=O)[C@H](CC(=O)O)NC1=O)NC(=O)[C@H](CC(C)(C)C)NC(=O)[C@H](CC(=O)O)NC2=O (stereo partly shown) [I-1069] , is recorded IC50 strictly lower than 0.2 µM?
no (0)

Given CC(=O)N1CCC[C@]12CC=CCCCC1(CCCC=CCCCOC(=O)N3CC[C@@](C(=O)N[C@@H](Cc4ccccc4Cl)C(=O)N[C@@H](Cc4csc5ccccc45)C(=O)N[C@@H](CC(C)C)C(N)=O)(C3)NC(=O)[C@H](CC(C)C)NC(=O)[C@H](Cc3ccccc3)NC(=O)[C@H](C)NC(=O)[C@H](C)NC(=O)[C@H](CC(=O)O)NC(=O)[C@H](CC(=O)O)NC1=O)NC(=O)[C@H](CC(C)C)NC(=O)[C@H](CC(=O)O)NC2=O (stereo partly shown) [I-1419] , is recorded IC50 strictly lower than 0.2 µM?
yes (1)
